As shown below, each of these variants has a reported protein stability index value.
B1: ELF3 (parent)
chain: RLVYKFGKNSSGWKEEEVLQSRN

# Variants of: B1
# experiment.summary: protein stability index of a GFP-peptide fusion (GPS, HEK-293T) (PSI 1-6); higher = more stable;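 note: lentivirally expressed fusions sorted by FACS into six bins by GFP to DsRed ratio, PSI derived from sequencing read proportions per bin multiplied by bin number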
# experimental.setup: c terminus: native
Would you mind answering with just the numeric figure?

Looking up L2T , I see its protein stability index listed as 2.84

Looking up K14F , I see its protein stability index listed as 2.49

Looking up F6D , I see its protein stability index listed as 4.7

Looking up L19C , I see its protein stability index listed as 2.33

Looking up L19P , I see its protein stability index listed as 3.12

Looking up L19Y , I see its protein stability index listed as 1.52

Looking up S10K , I see its protein stability index listed as 2.23

Looking up K5E , I see its protein stability index listed as 2.89

Looking up V18I , I see its protein stability index listed as 2.32

Looking up S11N , I see its protein stability index listed as 1.89

Looking up V3G , I see its protein stability index listed as 2.48

Looking up S11T , I see its protein stability index listed as 2.83

Looking up L2K , I see its protein stability index listed as 2.31

Looking up E16Q , I see its protein stability index listed as 1.25

Looking up L2A , I see its protein stability index listed as 3.2

Looking up W13Y , I see its protein stability index listed as 2.96

Looking up G7E , I see its protein stability index listed as 2.94

Looking up K5A , I see its protein stability index listed as 1.76

Looking up N23M , I see its protein stability index listed as 1.81

Looking up G12S , I see its protein stability index listed as 2.5

Looking up Y4T , I see its protein stability index listed as 3.06

Looking up K5T , I see its protein stability index listed as 2.14

Looking up E15K , I see its protein stability index listed as 3.27
